Data provenance is PubChem BioAssay (Tox21).

# PROTOCOL SUMMARY: qHTS RealTime-Glo MT Cell Viability Assay in HEK293 cells - 40 hour (AID 1224874); further: on the % scale 0 is the no-effect control and ±100 the full control effect
# TEST SETTINGS: RealTime-Glo luminescence; stronger effect = lower value
Records with an inconclusive call do not appear.
Catalogue of max response values
MEASURED PARAMETER: max response (%)

• NS(=O)(=O)c1cc(C(=O)O)cc(N2CCCC2)c1Oc1ccccc1 = -15.6
• O=C(c1ccccc1)C1CCCCC1 = -10.1
• c1ccc(CC2=NCCN2)cc1 = -5.85
• N[C@@H](C(=O)N[C@@H]1C(=O)N2C(C(=O)O)=C(Cl)CS[C@H]12)c1ccccc1 = 6.7
• CC(C)NCCCC1(C(N)=O)c2ccccc2-c2ccccc21 = -19.1
• Nc1c2c(nc3ccccc13)CCCC2O (stereo not given) = 24.6
• CC(C)c1cc2c(cc1S(=O)(=O)O)[C@@]1(C)CCC[C@@](C)(C(=O)O)[C@@H]1CC2 = 1.39
• C1CN(CCOCCN2CCOCC2)CCO1 = 4.52
• CC(=O)Nc1c(I)cc(I)c(C(=O)O)c1I = 7.77
• NC(CSCC(=O)O)C(=O)O (stereo not given) = 7.24
